- assay-info: chemical genetic growth profiling, strain panel (AID 1159580);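 further: tested at 20 µM; growth read once vehicle control cultures reached saturation at 30 °C; 1 = growth at the plate median or of vehicle wells; lower values mean less growth of the strain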
- settings: S. cerevisiae deletion strains, growth OD, locus YDR052C, strain DBF4
Screen size: about 5,500 compounds; about 2,000 (36%) were called active. Inconclusive results (about 18%) are left out. No stated cut-off is given here; in the data, active means normalized growth mostly below about 0.91 (no sharp cut-off); inconclusive means no clear call, values can overlap the other calls; inactive means mostly above about 0.92. Some of the results follow.
The categories you may choose from are 1 for active, 0 for inactive

compound | category
CCn1nc(C)cc1-c1nnc(Sc2ncc([N+](=O)[O-])s2)n1C | 0
CC(C)(C)c1csc(NC(=O)Nc2ccc(Cl)cc2)n1 | 0
CC(C)c1ccc(-c2cc(=O)c3ccccc3o2)cc1 | 0
O=C1c2ccccc2O[C@@H](c2ccccc2)[C@@H]1NC1CCCCC1 | 1
CC(O)(CNCc1ccc(Cl)cc1)CSc1ccccc1Cl (configuration not stated) | 0

Q. Record request — test call for "COc1cc(NC(=S)Nc2ccccc2OC(F)(F)F)cc(C(F)(F)F)c1"
A. 0

Q. Record request — test call for "O=C1Nc2ccccc2/C1=N/N=C\c1cc(Br)cc(Br)c1O"
A. 0

Q. Record request — test call for "CC(C)(C)c1csc(NNC(=O)c2ccc(Cl)cc2)n1"
A. 0

Q. Record request — test call for CCC(C)COC(=O)/C=C/c1ccc(N=Cc2ccc(OC)cc2)cc1 (configuration not stated)
A. 0

Q. Record request — test call for "Clc1ccc(-c2csc(Nc3ccccc3)n2)s1"
A. 0

Q. Record request — test call for "O=C(NCc1cccs1)c1csc(Cc2c(Cl)cccc2Cl)n1"
A. 0
